Experimental System: T1, hIL-17A (human, UniProt Q16552 24-155)
T1 construct: Bought protein
T1 sequence (Q16552 24-155 limits assumed): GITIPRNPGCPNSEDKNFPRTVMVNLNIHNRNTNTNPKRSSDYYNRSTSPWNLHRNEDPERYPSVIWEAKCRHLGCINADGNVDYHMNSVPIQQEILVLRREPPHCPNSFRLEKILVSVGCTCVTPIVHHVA
Test Name: ELISA on captured hIL-17A, cleared E. coli lysates
Experimental Readout: binding result

[[record]]
binder = "V1 expressed in E. coli (Trx-6xHis-tagged) (receptor, Tested as cleared E. coli lysate; not shown: N-terminal thioredoxin (Trx)-6xHistidine tag of pET32) LRLLDHRALVCSQEGLNCTVKNSTCLDDSWIHPRNLTPSSPKNLQIQLHFAHTQQGDLLPVAHIEWTLQTDASILYLEGAELSVLQLNTNERLCVRFEFLSKLRHHHKRWRFTFSHFVVDPDQEYEVTVHHLPKPIPDGDPNHQSKNFLVPDCEDARMKVTTPCMSSGSLWDPNITVETLEAHQLRVSFTLWNESTHYQILLTSFPHMENHSCFEHMHHIPAPRPEEFHQRSNVTLTLSNLKGCCRHQVQIQPFFSSCLNDCLRHSATVSCPEMPDTPEPIPDYMPLW"
result = "binds"

[[record]]
binder = "V14 expressed in E. coli (Trx-6xHis-tagged) (receptor, Tested as cleared E. coli lysate; not shown: N-terminal thioredoxin (Trx)-6xHistidine tag of pET32) LRLLDHRALVCSQPGLNCTVKNSTCLDDSWIHPRNLTPSSPKDVQIQLHFAHTQHGDLFPVAHIEWTLQTDASILYLEGAELSVLQLNTNERLCVRFEFLSKLRHHHKRWRFTFSHFVVDPDQEYEVTVHHLPKPIPDRDPNHQSKNFLVPDCEDARMKVTTPCMSSGSLWDPNITVETLEAHQLRVSFTLWNESTHYQILLTSFPHMENHSCFEHMHHIPAPRPEEFHQRSNVTLTLRNLKGCCRHHVQIQPFFSSCLNDCLRHSVTVSCPEMPDTPEPIPDYMPLW"
result = "binds"

[[record]]
binder = "V7 expressed in E. coli (Trx-6xHis-tagged) (receptor, Tested as cleared E. coli lysate; not shown: N-terminal thioredoxin (Trx)-6xHistidine tag of pET32) LRLLDHRALVCSQPGLNCTVKNSTCLDDSWIHPRNLTPSSPKDLQIQLHFAHTQQGDLVPVAHIEWTLQTDASILYLEGAELSVLQLNTNERLCVRFEFLSKLRHHHKRWRFTFSHFVVDPDQEYEVTVHHLPKPIPDGDPNHQSKNFLVPDCEDARMKVTTPCMSSGSLWDPNITVETLEAHQLRVSFTLWNESTHYQILLTSFPHMENHSCFEHMHHIPAPRPEEFHQRSNVTLTLRNLKGCCRHQVQIQPFFSSCLNDCLRHSATVSCPEMPDTPEPIPDYMPLW"
result = "binds"

